TARGET OR TEST SYSTEM: T1, 4H3627-AA
T1 chain: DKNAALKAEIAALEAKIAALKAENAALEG
PROTOCOL: two-hybrid library CCmax;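 further: natural log of median RNA to DNA barcode read ratio; higher means stronger binding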
MEASUREMENT CONTEXT: mean of both orientations
Class Fulfilled: interaction score at least -0.9. Class Not fulfilled: interaction score below -0.9.

INSERT INTO results (binder, class_label) VALUES
  ('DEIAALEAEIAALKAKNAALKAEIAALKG [4H122-AA]', 'Not fulfilled'),
  ('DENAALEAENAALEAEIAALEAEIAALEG [4H1153-AA]', 'Fulfilled'),
  ('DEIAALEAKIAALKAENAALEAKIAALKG [4H342-AA]', 'Fulfilled'),
  ('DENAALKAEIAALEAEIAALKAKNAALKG [4H1552-AA]', 'Fulfilled'),
  ('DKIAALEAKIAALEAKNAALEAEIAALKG [4H2354-AA]', 'Not fulfilled'),
  ('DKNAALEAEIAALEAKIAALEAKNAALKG [4H3112-AA]', 'Fulfilled'),
  ('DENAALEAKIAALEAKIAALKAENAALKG [4H1324-AA]', 'Fulfilled'),
  ('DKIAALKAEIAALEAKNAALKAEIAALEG [4H2617-AA]', 'Fulfilled'),
  ('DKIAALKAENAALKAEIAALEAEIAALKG [4H2754-AA]', 'Not fulfilled'),
  ('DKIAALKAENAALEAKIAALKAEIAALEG [4H2729-AA]', 'Fulfilled'),
  ('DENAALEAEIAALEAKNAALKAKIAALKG [4H1086-AA]', 'Not fulfilled'),
  ('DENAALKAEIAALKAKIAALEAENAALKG [4H1636-AA]', 'Fulfilled'),
  ('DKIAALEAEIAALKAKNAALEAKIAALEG [4H2165-AA]', 'Not fulfilled'),
  ('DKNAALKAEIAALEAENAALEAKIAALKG [4H3606-AA]', 'Not fulfilled');
